meta.source: PubChem BioAssay (Tox21)

target: Glucocorticoid receptor (Homo sapiens) (UniProt P04150); test: qHTS assay to identify small molecule antagonists of the glucocorticoid receptor (GR) signaling pathway (AID 720692); details: GR-bla HeLa, beta-lactamase FRET ratio, dexamethasone-stimulated, 18 h; series mostly up to 58.5 µM
Sequence (P04150 whole entry, looked up): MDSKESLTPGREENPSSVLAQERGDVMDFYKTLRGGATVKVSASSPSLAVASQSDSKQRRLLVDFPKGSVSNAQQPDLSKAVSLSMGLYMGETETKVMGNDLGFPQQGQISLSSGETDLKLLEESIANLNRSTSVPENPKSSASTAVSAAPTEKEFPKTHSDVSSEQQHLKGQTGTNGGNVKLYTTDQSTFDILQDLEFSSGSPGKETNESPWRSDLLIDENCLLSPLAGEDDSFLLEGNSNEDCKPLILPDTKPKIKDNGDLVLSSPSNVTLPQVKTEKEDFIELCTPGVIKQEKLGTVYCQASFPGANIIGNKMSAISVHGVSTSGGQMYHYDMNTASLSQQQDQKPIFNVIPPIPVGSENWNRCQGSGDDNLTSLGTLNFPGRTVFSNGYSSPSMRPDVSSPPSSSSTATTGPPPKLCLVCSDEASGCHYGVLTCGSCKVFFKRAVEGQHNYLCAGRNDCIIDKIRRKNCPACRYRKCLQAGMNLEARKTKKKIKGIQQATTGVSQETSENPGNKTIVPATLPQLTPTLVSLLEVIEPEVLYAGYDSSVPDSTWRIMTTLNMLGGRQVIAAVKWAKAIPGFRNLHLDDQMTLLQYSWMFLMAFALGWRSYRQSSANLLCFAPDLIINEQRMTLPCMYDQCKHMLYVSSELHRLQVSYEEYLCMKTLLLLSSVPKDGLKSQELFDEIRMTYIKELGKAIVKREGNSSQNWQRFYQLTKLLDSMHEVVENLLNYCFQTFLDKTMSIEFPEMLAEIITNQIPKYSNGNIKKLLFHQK
Results filed as inconclusive are left out. Calls of active or inactive are those of the source. Calls come from the whole dose curve; as a rule, active = well fitted inhibition curve with a large enough effect in the signal ratio in the repeat runs (not every such curve was filed as active); inconclusive = weak or mixed curves, or effect the other way; inactive = no such curve, though single readings can be large or run the other way; the % refers to the signal ratio.
Outcomes: 1 = active, 0 = inactive

>>> label("FC(F)(F)COCC(F)(F)F")
0
>>> label("O=C1c2c(O)cccc2[C@H]([C@@H]2O[C@H](CO)[C@@H](O)[C@H](O)[C@H]2O)c2cc(CO)cc(O)c21")
0
>>> label("NCCO/C=C/[C@H](N)C(=O)O")
0
>>> label("NC(=O)[C@@H]1CCCN1C(=O)[C@H](Cc1cnc[nH]1)NC(=O)[C@@H]1CCC(=O)N1")
0
>>> label("C/C(=C\\C(=O)OCCCCCCCCC(=O)O)C[C@@H]1OC[C@H](C[C@@H]2O[C@H]2[C@@H](C)[C@H](C)O)[C@@H](O)[C@H]1O")
0
>>> label("CC(C)c1ccc2sc3ccccc3c(=O)c2c1")
0
>>> label("CCCCC/C=C\\C=C\\C(=O)OCC")
1
>>> label("CO/N=C(\\C(=O)N[C@@H]1C(=O)N2C(C(=O)[O-])=C(C[n+]3ccc(N)n3CCO)CS[C@H]12)c1csc(N)n1")
0
>>> label("NCC(O)CC(=O)O (configuration not stated)")
0
>>> label("C[N+]1(CCCCC[N+]2(C)CCCC2)CCCC1")
0
>>> label("CC(C)=CCC/C(C)=C/CC/C(C)=C/CC/C=C(\\C)CC/C=C(\\C)CCC=C(C)C")
0
>>> label("O=C(O)[C@H]1CN(C/C=C/P(=O)(O)O)CCN1")
0
>>> label("CCC(O)c1ccccc1 (configuration not stated)")
0
>>> label("CCOc1ccc(S(=O)(=O)O)c2cccnc12")
0
>>> label("C=C1C(=C/C=C2\\CCC[C@]3(C)[C@@H]([C@H](C)CCCC(C)C)CC[C@@H]23)C[C@@H](O)C[C@@H]1O")
1
>>> label("CC(C)(C)c1ccc2c(S(=O)(=O)O)c(C(C)(C)C)ccc2c1")
0
>>> label("C=CC(N)CCC(=O)O (configuration not stated)")
0
>>> label("CCN(CC)CC#CCOC(=O)C(O)(c1ccccc1)C1CCCCC1 (configuration not stated)")
0
>>> label("CCN1CCCC1CNC(=O)c1cc(S(=O)(=O)CC)ccc1OC (configuration not stated)")
0
>>> label("CC1CCCC(C)N1NC(=O)c1ccc(Cl)c(S(N)(=O)=O)c1 (configuration not stated)")
0
>>> label("Cc1onc(-c2c(F)cccc2Cl)c1C(=O)N[C@@H]1C(=O)N2[C@@H]1SC(C)(C)[C@@H]2C(=O)O")
0
>>> label("CC(=O)NC[C@H]1CN(c2ccc(N3CCOCC3)c(F)c2)C(=O)O1")
0

----------
test: qHTS assay for small molecule disruptors of the mitochondrial membrane potential (AID 720635); conditions: HepG2 mitochondrial membrane potential, Mito-MPS dye ratio; series mostly up to 83.2 µM
Results filed as inconclusive are left out. The source made the active and inactive calls. The call rests on the fitted dose curve; in most records, active means well fitted inhibition curve with a large enough effect in the signal ratio in the repeat runs; inconclusive means weak or mixed curves, or effect the other way; inactive means flat fitted curve, though single readings scatter; the % refers to the signal ratio.
Outcomes: class 1 for active, class 0 for inactive

>>> label("CCCCCCCCCCCCCCCC(=O)OC[C@H](COP(=O)([O-])OCC[N+](C)(C)C)OC(=O)CCCCCCCCCCCCCCC")
"class 0"
>>> label("CNC(=O)OCc1cccc(COC(=O)NC)n1")
"class 0"
>>> label("O=C(O)COc1ccccc1/C=N/NC(=O)c1ccncc1")
"class 0"
>>> label("Cc1cc(F)ccc1-c1cc(N2CC[C@@H](O)[C@H]2CO)ncc1N(C)C(=O)C(C)(C)c1cc(C(F)(F)F)cc(C(F)(F)F)c1")
"class 1"
>>> label("CCCOC(=O)c1ccccc1O")
"class 0"

----------
biological target: Estrogen receptor beta (Homo sapiens) (UniProt Q92731); test: qHTS assay to identify small molecule agonists of the estrogen receptor beta (ER-beta) signaling pathway (AID 1259377); conditions: ER-beta-UAS-bla HEK293T, beta-lactamase FRET ratio, 16 h; series mostly up to 92.4 µM; note: % is set by controls: 0 for no effect and ±100 for the full control effect
Sequence (Q92731 whole entry, looked up): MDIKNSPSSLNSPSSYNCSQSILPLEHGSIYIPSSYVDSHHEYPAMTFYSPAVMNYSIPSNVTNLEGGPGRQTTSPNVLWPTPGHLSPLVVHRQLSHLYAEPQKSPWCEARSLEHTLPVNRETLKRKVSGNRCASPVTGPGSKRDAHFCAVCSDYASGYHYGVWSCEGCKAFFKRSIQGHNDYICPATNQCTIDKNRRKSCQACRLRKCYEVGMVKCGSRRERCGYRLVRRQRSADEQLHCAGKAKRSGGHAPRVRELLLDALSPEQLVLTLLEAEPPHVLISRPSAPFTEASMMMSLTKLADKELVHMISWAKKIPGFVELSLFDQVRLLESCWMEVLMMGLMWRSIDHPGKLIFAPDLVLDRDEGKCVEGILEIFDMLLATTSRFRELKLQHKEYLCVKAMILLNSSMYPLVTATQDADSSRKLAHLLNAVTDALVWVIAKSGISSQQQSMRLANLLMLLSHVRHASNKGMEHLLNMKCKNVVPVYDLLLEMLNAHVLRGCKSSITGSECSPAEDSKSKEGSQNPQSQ
Results filed as inconclusive are left out. The source made the active and inactive calls. Calls come from the whole dose curve; as a rule, active = well fitted activation curve with a large enough effect in the signal ratio in the repeat runs (not every such curve was filed as active); inconclusive = weak or mixed curves, or effect the other way; inactive = flat fitted curve, though single readings scatter; the % refers to the signal ratio.
experimental readout: activation

>>> reported_value("Cc1ccc2sc3cccc(C)c3c2c1")
"inactive"
>>> reported_value("O=c1[nH]cccc1O")
"inactive"
>>> reported_value("COc1ccc(OC)c(N=Nc2c(O)ccc3ccccc23)c1")
"inactive"
>>> reported_value("C=CC(C)(C)O")
"inactive"
>>> reported_value("O=C(NCc1ncc(C(F)(F)F)cc1Cl)c1c(Cl)cccc1Cl")
"inactive"
>>> reported_value("CCSCC")
"inactive"
>>> reported_value("Cn1ccnc1")
"inactive"
>>> reported_value("NC(=O)c1ccccc1Cl")
"inactive"
>>> reported_value("CCc1cccc(CC)c1")
"inactive"
>>> reported_value("Cc1ccc(C=O)cc1")
"inactive"
>>> reported_value("C/C=C/C(=O)OCC(C)C")
"inactive"
>>> reported_value("CCCCCCCCc1ccc(Nc2ccc(CCCCCCCC)cc2)cc1")
"inactive"
>>> reported_value("c1ccc(-c2nc3ccccc3[nH]2)cc1")
"inactive"
>>> reported_value("COc1cc([C@@H]2c3cc4c(cc3[C@@H](O[C@@H]3O[C@@H]5CO[C@@H](C)O[C@H]5[C@H](O)[C@H]3O)[C@H]3COC(=O)[C@H]23)OCO4)cc(OC)c1O")
"inactive"

----------
Experiment: qHTS assay to identify small molecule antagonists of the retinoid acid receptor (RAR) signaling pathway - cell viability counter screen (AID 1159551); note: nearly all actives have a fitted effect of over 35% in size
Settings: C3RL4 cells viability, ATP luminescence (CellTiter-Glo), 6 h; series mostly up to 92.4 µM
Experimental: U.S. Tox21 Program National Center for Advancing Translational Sciences [NCATS] NIH Chemical Genomics Center [NCGC] U.S. Environmental Protection Agency [EPA] National Institutes of Environmental Health Sciences [NIEHS] National Toxicology Program [NTP] U.S. Food and Drug Administration [FDA] […] Also cytotoxicity was assessed by determining the viability of cells based on the quantitation of ATP. […]
Results filed as inconclusive are left out. Active and inactive are the calls of the source. Calls follow the shape of the dose curve; as a rule, active = well fitted cell-killing curve with a large enough effect in the repeat runs; inconclusive = weak or mixed curves, or effect the other way; inactive = flat fitted curve, though single readings scatter.
Outcomes: active, inactive

>>> label("CC(=O)Nc1ccc(N=Nc2cc(C)ccc2O)cc1")
"inactive"
>>> label("CN[C@H]1CC[C@@H](c2ccc(Cl)c(Cl)c2)c2ccc(S(N)(=O)=O)cc21")
"inactive"
>>> label("O=[N+]([O-])c1ccc(O)c2ncccc12")
"inactive"
>>> label("C=C(C)C1CCC(C)CC1O (stereo not drawn)")
"inactive"
>>> label("CN(C)CCOc1ccc(/C(=C(/CCCl)c2ccccc2)c2ccccc2)cc1")
"active"
>>> label("c1ccc(-c2ccccc2-c2ccccc2)cc1")
"inactive"
>>> label("N#Cc1ccc(C/C(=N/NC(=O)Nc2ccc(OC(F)(F)F)cc2)c2cccc(C(F)(F)F)c2)cc1")
"inactive"
>>> label("CC(C)=NNC(N)=S")
"inactive"
>>> label("O=C(NCc1ncc(C(F)(F)F)cc1Cl)c1c(Cl)cccc1Cl")
"inactive"
>>> label("CC(CC(C)(C)C)CC(C)(C)CC(C)(C)C (stereo not drawn)")
"inactive"
>>> label("Nc1cccnc1N")
"inactive"
>>> label("Cc1cc(F)ccc1-c1cc(N2CC[C@@H](O)[C@H]2CO)ncc1N(C)C(=O)C(C)(C)c1cc(C(F)(F)F)cc(C(F)(F)F)c1")
"inactive"
>>> label("C=CC(=O)OCC(Br)CBr (stereo not drawn)")
"inactive"

----------
Assay: qHTS assay to identify small molecule HDAC inhibitors - cell viability counter screen (AID 1259365); note: nearly all actives have a fitted effect of over 50% in size; note: potency is the fitted concentration of half-maximal effect
Settings: HCT-116 viability, CellTiter-Glo ATP luminescence, 2 h; series mostly up to 92.4 µM
From the text: U.S. Tox21 Program National Center for Advancing Translational Sciences [NCATS] NIH Chemical Genomics Center [NCGC] U.S. Environmental Protection Agency [EPA] National Institutes of Environmental Health Sciences [NIEHS] National Toxicology Program [NTP] U.S. Food and Drug Administration [FDA] Tox21 Assay Overview: Histone deacetylases (HDACs) are a group of epigenetic enzymes that regulate gene expression by histone deacetylation. […]
Active and inactive are the calls of the source. Calls come from the whole dose curve; as a rule, active = well fitted cell-killing curve with a large enough effect in the repeat runs; inconclusive = weak or mixed curves, or effect the other way; inactive = flat fitted curve, though single readings scatter.
experimental readout: Potency

>>> reported_value("C=C(C)CCO")
"inactive"
>>> reported_value("Cc1c[nH]c(=O)[nH]c1=O")
"inactive"
>>> reported_value("CCOC(=O)[C@H](O)[C@@H](O)C(=O)OCC")
"inactive"
>>> reported_value("ClC(c1ccccc1)(c1ccccc1)c1ccccc1")
"inactive"
>>> reported_value("C=CC(C)(C)O")
"inactive"
>>> reported_value("SC1CCCCC1")
"inactive"
>>> reported_value("O=C(N[C@H](CO)[C@H](O)c1ccc([N+](=O)[O-])cc1)C(Cl)Cl")
"inactive"
>>> reported_value("Cc1cccc2c1ccc1ccccc12")
"inactive"
>>> reported_value("COC(=O)c1ccc([N+](=O)[O-])cc1")
"inactive"
>>> reported_value("CN(C[C@@H](CC[N+]12CCC(C3CCCCC3)(CC1)CC2)c1ccc(Cl)c(Cl)c1)C(=O)c1cc(C(F)(F)F)cc(C(F)(F)F)c1")
"12.2 µM (active)"
>>> reported_value("CC1CCC(C(C)(C)O)CC1 (stereo not drawn)")
"inactive"
>>> reported_value("COc1ccc(OC)c(N=Nc2c(O)ccc3ccccc23)c1")
"24.3 µM (active)"
>>> reported_value("Cc1ccc(C2OC[C@@H]3OC(c4ccc(C)cc4)O[C@H]([C@H](O)CO)[C@@H]3O2)cc1 (stereo partly drawn)")
"inactive"
